Tested on: Pyrenophora teres
Test: Pyrenophora teres / barley / leaf disc preventative (net blotch)
Type: in vivo
Conditions: foliar, barley leaf segments cv Hasso, inoculated two days after application, assessed 5-7 days after application, read-out: control of Pyrenophora teres (disease control compared to untreated)
endpoint.name: pest or weed control at 200 ppm

Problem: Specify reported pest or weed control at 200 ppm for the compound shown: CCCn1c(-n2ncnc2N)nc2cncc(/C(C)=N\OC/C=C\Cl)c21 [Compound 180]
Solution: ≥ 80%

Problem: Specify reported pest or weed control at 200 ppm for the compound shown: CCn1c(-n2ncnc2N)nc2cncc(-c3ccc(OC)cc3F)c21 [Compound 96]
Solution: ≥ 80%

---

endpoint.name: melting point

Here's what some known entries look like.
- compound: "CCn1c(-n2ncnc2N)nc2cncc(C3CC(c4ccccc4)=NO3)c21 (centres unmarked)"
  melting point: "201 to 209 °C"
- compound: "C=CCON=C(C)c1cncc2nc(-n3ncnc3N)n(CC)c12"
  melting point: "142 to 146 °C"

With those in mind, consider the next compound.
Problem: Specify reported melting point for the compound shown: CCn1c(-n2ncnc2N)nc2cncc(C=Cc3ccccc3)c21
Solution: 247 to 252 °C

---

List of melting point values.

Here's what some known entries look like.
- molecule: "Cn1c(-n2ncnc2N)nc2cnccc21"
  melting point: "240 to 244 °C"
- molecule: "CCn1c(-n2ncnc2N)nc2cncc(C#CC3CC3)c21"
  melting point: "188 to 192 °C"
- molecule: "CCCCc1nc(N)n(-c2nc3cnccc3n2C2CCCCC2)n1"
  melting point: "163 to 165 °C"

Problem: Specify reported melting point for the molecule shown: CCn1c(-n2ncnc2N)nc2c(Cl)ncc(-c3ccccc3C)c21
Solution: 274 to 278 °C

Problem: Specify reported melting point for the molecule shown: C=Cc1cncc2nc(-n3ncnc3N)n(CC)c12
Solution: 178 to 186 °C

Problem: Specify reported melting point for the molecule shown: CCn1c(-n2ncnc2N)nc2cncc(-c3ccc(F)cc3)c21
Solution: 275 to 277 °C

Problem: Specify reported melting point for the molecule shown: Nc1nc(-c2ccccc2)nn1-c1nc2cnccc2n1C1CCCCC1 [Example P1]
Solution: 222 to 225 °C

Problem: Specify reported melting point for the molecule shown: CCn1c(-n2ncnc2N)nc2cncc(-c3ccccc3)c21
Solution: 247 to 251 °C

Problem: Specify reported melting point for the molecule shown: CCn1c(-n2ncnc2N)nc2cncc(C(C)=O)c21
Solution: 242 to 244 °C

Problem: Specify reported melting point for the molecule shown: CCCn1c(-n2ncnc2N)nc2cncc(Br)c21
Solution: 207 to 208 °C

---

Tested on: Pythium ultimum
Assay: Pythium ultimum / liquid culture (seedling damping off)
Format: cell-based
Settings: Globisporangium ultimum, potato dextrose broth, 24° C., 2-3 days after application, read-out: control of Pythium ultimum (inhibition of growth, photometric)
endpoint.name: inhibition at 20 ppm

Here's what some known entries look like.
- query.smiles: "CCn1c(-n2ncnc2N)nc2cncc(-c3ccc(Cl)cc3Cl)c21"
  result: "≥ 80%"
- query.smiles: "CCn1c(-n2ncnc2N)nc2cncc(-c3ccc(OC)cc3F)c21"
  result: "≥ 80%"
- query.smiles: "CCCc1cncc2nc(-n3ncnc3N)n(CC)c12"
  result: "≥ 80%"
- query.smiles: "C=Cc1cncc2nc(-n3ncnc3N)n(CC)c12"
  result: "≥ 80%"

With those in mind, consider the next molecule.
Problem: Send back Pythium ultimum inhibition at 20 ppm of CCn1c(-n2ncnc2N)nc2cncc(C)c21 only.
Solution: ≥ 80%
